- TESTED ON: Internal ribosome entry site (IRES)
- TEST SUMMARY: Binding affinity to cyanine dye-labeled HCV IRES subdomain 2a RNA by FRET assay in presence of Mg2+
REPORTED PROPERTY: pEC50
// scale note: pEC50 = -log10(conc_M); give the bare number

Past entries and their recorded results:
[
  {
    "SMILES REPR": "CN(C)CCCn1c(N)nc2ccc(Nc3ccncc3)cc21",
    "pEC50": 3.80
  },
  {
    "SMILES REPR": "CN(C)CCCOc1ccc2c(c1)nc(N)n2-c1ccc(N(C)C)cc1",
    "pEC50": 4.02
  },
  {
    "SMILES REPR": "CC(=O)Nc1nc2cc(OCCCN(C)C)ccc2n1-c1ccccc1",
    "pEC50": 3.68
  },
  {
    "SMILES REPR": "CN(C)c1cccc(-n2c(N)nc3ccc(Nc4ccncc4)cc32)c1",
    "pEC50": 4.00
  },
  {
    "SMILES REPR": "CN(C)CCCn1c(N)nc2ccc(Nc3cccnc3)cc21",
    "pEC50": 3.80
  }
]

Turning to the following compound.
Check Internal ribosome entry site (IRES) data and give pEC50 for CC(=O)Nc1nc2cc(OCCN(C)C)ccc2n1-c1ccccc1 .
4.00

###

- TESTED ON: Internal ribosome entry site (IRES)
- TEST SUMMARY: Binding affinity to cyanine dye-labeled HCV IRES subdomain 2a RNA by FRET assay in presence of Mg2+
REPORTED PROPERTY: pEC50
// scale note: pEC50 = -log10(conc_M); give the bare number

[
  {
    "SMILES REPR": "CN(C)c1cccc(-n2c(N)nc3ccc(Nc4cccnc4)cc32)c1",
    "TESTED ON": "Internal ribosome entry site (IRES)",
    "pEC50": 4.13
  },
  {
    "SMILES REPR": "CN(C)CCCn1c(N)nc2cccc(-c3cccc(N(C)C)c3)c21",
    "TESTED ON": "Internal ribosome entry site (IRES)",
    "pEC50": 3.54
  }
]

Turning to the following compound.
Give me measured pEC50, please, for this compound: CN(C)CCCOc1ccc2nc(N)n(-c3cccc(N(C)C)c3)c2c1
3.92
